Data origin, for the record: PubChem BioAssay AID1159580

- Assay notes: chemical genetic growth profiling, strain panel (AID 1159580);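 also: tested at 20 µM; growth read once vehicle control cultures reached saturation at 30 °C; 1 = growth at the plate median or of vehicle wells; lower values mean less growth of the strain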
- Measurement parameters: S. cerevisiae deletion strains, growth OD, locus YGL086W, strain mad1, hits give low values
About 2,000 (36%) of roughly 5,500 compounds were called active. Inconclusive results (about 18%) are left out. The list shows a part of the results.
Readout type: normalized growth
Respond using a number only.

1) O=C1[C@H](CCC(O)c2ccc(F)cc2)[C@@H](c2ccc(O)cc2)N1c1ccc(F)cc1 (stereo partly specified)
0.984

IN: I would be grateful if you could share the reported normalized growth for `O=C(Cn1ccnc1[N+](=O)[O-])NCCO` .
OUT: 1.03

IN: I would be grateful if you could share the reported normalized growth for CC(C)COCC(CN(Cc1ccccc1)c1ccccc1)N1CCCC1 (stereo unspecified) .
OUT: 0.903

IN: I would be grateful if you could share the reported normalized growth for `CC(C)NNC(=O)c1ccncc1` .
OUT: 1.01

IN: I would be grateful if you could share the reported normalized growth for `Cc1cc(-c2ccccc2)nnc1NCCN1CCOCC1` .
OUT: 1.01

IN: I would be grateful if you could share the reported normalized growth for `NC[C@@H]1CC[C@@H](N)[C@@H](O[C@H]2[C@H](O)[C@@H](O[C@H]3O[C@H](CO)[C@@H](O)[C@H](N)[C@H]3O)[C@H](N)C[C@@H]2N)O1` .
OUT: 0.995

IN: I would be grateful if you could share the reported normalized growth for `NC(=O)c1cccc(N)c1` .
OUT: 0.988

IN: I would be grateful if you could share the reported normalized growth for `Nc1ccc(N=Nc2ccccc2)c(N)n1` .
OUT: 0.971

IN: I would be grateful if you could share the reported normalized growth for CO/N=C(\C(=O)NC1C(=O)N2C(C(=O)O)=C(COC(N)=O)CSC12)c1ccco1 (stereo unspecified) .
OUT: 0.0523

IN: I would be grateful if you could share the reported normalized growth for Nc1ccn(C2O[C@H](CO)[C@@H](O)[C@@H]2O)c(=O)n1 (stereo partly specified) .
OUT: 1

IN: I would be grateful if you could share the reported normalized growth for `O=c1cc[nH]c(=S)[nH]1` .
OUT: 1
